- SYSTEM_NAME: D(2) dopamine receptor (Rattus norvegicus, UniProt P61169)
- Sequence (P61169 whole entry): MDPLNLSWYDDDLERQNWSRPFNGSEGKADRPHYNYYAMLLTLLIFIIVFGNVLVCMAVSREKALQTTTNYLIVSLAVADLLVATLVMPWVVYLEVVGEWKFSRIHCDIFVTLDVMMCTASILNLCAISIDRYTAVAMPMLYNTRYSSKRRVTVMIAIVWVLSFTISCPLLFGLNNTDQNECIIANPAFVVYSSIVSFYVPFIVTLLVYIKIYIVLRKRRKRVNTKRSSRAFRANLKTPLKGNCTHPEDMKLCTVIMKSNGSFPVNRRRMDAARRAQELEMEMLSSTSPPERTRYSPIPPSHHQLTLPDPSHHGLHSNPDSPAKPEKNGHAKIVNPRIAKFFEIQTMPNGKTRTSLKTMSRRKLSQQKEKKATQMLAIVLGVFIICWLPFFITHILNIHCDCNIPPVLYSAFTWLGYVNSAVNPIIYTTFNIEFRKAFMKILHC
- EXPERIMENTAL_PROTOCOL: Evaluated for binding towards Dopamine receptor D2 using [3H]N-0437 as radioligand from rat striatal membrane
ATTRIBUTE_MEASURED: Ki (nM)
Give the number; nM is assumed, so skip it.

CCCN[C@@H]1CCc2c(OC)cccc2[C@@H]1C    300
CCCN1CCCC(c2cccc(C#N)c2)C1 (single isomer, unassigned; (+))    4900
CCCN1CCCC(c2cccc(C#N)c2)C1 (single isomer, unassigned; (-))    396

Input: // map CCCN(CCC)[C@@H]1CCc2c(OC)cccc2[C@@H]1C to recorded Ki (system: D(2) dopamine receptor (Rattus norvegicus, UniProt P61169))
Output: 100
